Overview of recorded pKi for various compounds
Molecular target: Histamine H2 receptor (Homo sapiens)
Sequence (P25021 whole entry): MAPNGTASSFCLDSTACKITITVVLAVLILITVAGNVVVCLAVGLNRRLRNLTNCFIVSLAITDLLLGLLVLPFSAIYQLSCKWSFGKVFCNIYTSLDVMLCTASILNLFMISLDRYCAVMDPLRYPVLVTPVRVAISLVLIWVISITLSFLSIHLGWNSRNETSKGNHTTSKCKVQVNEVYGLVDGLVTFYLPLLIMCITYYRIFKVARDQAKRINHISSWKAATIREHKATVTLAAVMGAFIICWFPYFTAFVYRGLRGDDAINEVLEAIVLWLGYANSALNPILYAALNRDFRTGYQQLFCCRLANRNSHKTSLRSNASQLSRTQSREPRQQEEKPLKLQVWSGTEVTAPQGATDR
Assay: Displacement of [3H]UR-DE257 from human histamine H2 receptor stably expressed in baculovirus infected Sf9 cell membrane co-expressing RG-Salpha S incubated for 60 mins by scintillation counting analysis
Format: cell membranes
Value format note: pKi is -log10 of concentration (mol/L); just state the number.

| COMPOUND | ASSAY RESULT |
| --- | --- |
| C[C@@H](NC(=O)/N=C(\N)NCCCc1nnc(N)s1)c1ccccc1 | 7.89 |
| N/C(=N\C(=O)NCCCCCCNC(=O)/N=C(\N)NCCCc1nnc(N)s1)NCCCc1nnc(N)s1 | 8.28 |
| Cc1ccc(CC(C)CNC(=O)/N=C(\N)NCCCc2nnc(N)o2)cc1 (centres undefined) | 6.17 |
| CCCN[C@H]1CCc2nc(N)sc2C1 [PRAMIPEXOLE] | 4.86 |
| Cc1ccc(CC(C)CNC(=O)/N=C(\N)Nc2ccc(-c3sc(N)nc3C)cc2)cc1 (centres undefined) | 6.48 |
| NCCCCCCCCNC(=O)/N=C(\N)NCCCc1nnc(N)s1 | 7.48 |
| Cc1ccc(CC(C)CNC(=O)/N=C(\N)Nc2cccc(-c3sc(N)nc3C)c2)cc1 (centres undefined) | 6.63 |
| CCCCCNC(=O)/N=C(\N)Nc1ccc(-c2sc(N)nc2C)cc1.O=C(O)C(F)(F)F.O=C(O)C(F)(F)F | 6.34 |
| CCCCCNC(=O)/N=C(/N)NCCCc1nnc(C)s1.O=C(O)C(F)(F)F | 5.66 |
| Cc1nc(N)oc1CCCN/C(N)=N/C(=O)NCc1ccccc1 | 6.41 |

# input Bench note: what pKi did Cc1nc(N)oc1CCCN/C(N)=N/C(=O)NCC(C)C1CCCCC1.O=C(O)C(F)(F)F.O=C(O)C(F)(F)F (centres undefined) show?
# output 6.61

# input Please give the measured pKi for this compound: Cc1nc(N)sc1-c1ccc(N/C(N)=N/C(=O)NCC(C)C2CCCCC2)cc1 (centres undefined)
# output 6.51

# input For the compound CCCCCNC(=O)/N=C(\N)NCCCc1nnc(N)s1.O=C(O)C(F)(F)F.O=C(O)C(F)(F)F , what pKi is on record?
# output 8.52

# input Look up pKi for this compound: CCCCCCNC(=O)/N=C(\N)NCCCc1nnc(N)o1.O=C(O)C(F)(F)F.O=C(O)C(F)(F)F
# output 6.41

# input Give the measured pKi of CC(CNC(=O)/N=C(\N)NCCCc1nnc(N)s1)C1CCCCC1 (centres undefined) .
# output 7.71

# input Look up pKi: Cc1nnc(CCCN/C(N)=N/C(=O)NCC(C)C2CCCCC2)s1 (centres undefined)
# output 5.98

* * *

Molecular target: Histamine H2 receptor (Cavia porcellus)
Sequence (P47747 whole entry): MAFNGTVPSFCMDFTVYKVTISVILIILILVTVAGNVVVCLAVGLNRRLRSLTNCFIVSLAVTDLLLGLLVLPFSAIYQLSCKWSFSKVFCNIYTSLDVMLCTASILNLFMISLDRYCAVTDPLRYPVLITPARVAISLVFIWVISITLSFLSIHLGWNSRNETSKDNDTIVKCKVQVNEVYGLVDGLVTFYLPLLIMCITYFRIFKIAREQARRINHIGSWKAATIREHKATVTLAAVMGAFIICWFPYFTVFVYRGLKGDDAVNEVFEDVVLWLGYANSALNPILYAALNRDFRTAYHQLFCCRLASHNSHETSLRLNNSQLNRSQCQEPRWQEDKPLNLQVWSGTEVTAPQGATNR
Assay: Agonist activity at histamine H2 receptor in spontaneous beating guinea pig right atrium assessed as increase in heart beat
Assay type: functional, tissue-based, Right cardiac atrium
ASSAY ENDPOINT: EC50 (nM)
The figure you give is taken to be in nM; do not add the unit.

Observe how each entry below is paired with its result.
| COMPOUND | EC50, nM |
| --- | --- |
| C[C@@H](NC(=O)/N=C(\N)NCCCc1ncn[nH]1)c1ccccc1 | 38 |
| CC(NC(=O)/N=C(\N)NCCCc1nnc(N)s1)c1cccc(F)c1 (configuration not stated) | 0.912 |
| C[C@@H](NC(=O)/N=C(\N)NCCCc1nnc(N)s1)c1ccccc1 | 2.88 |
| N/C(=N\C(=O)NCc1ccccc1)NCCCc1nnc(N)s1 | 1.32 |
| CCCCCCNC(=O)/N=C(\N)NCCCc1nnc(N)s1 | 4.79 |

# input For Cc1ccc(CC(C)CNC(=O)/N=C(\N)NCCCc2nnc(N)s2)cc1.O=C(O)C(F)(F)F.O=C(O)C(F)(F)F (configuration not stated) , what is its reported EC50?
# output 95.5

# input Find the recorded EC50 belonging to CCCCCNC(=O)/N=C(\N)NCCCc1nnc(N)s1.O=C(O)C(F)(F)F.O=C(O)C(F)(F)F and report it.
# output 5.62
